Assay: Pharmacokinetic study in rats after oral administration of FA decoction
Assay type: in vivo, Sprague-Dawley rats
Conditions: male, Sprague-Dawley; rat plasma, oral FA decoction 30 g/kg; n=8; read-out: t 1/2z (converted)
Listing of recorded half-life by entry.
Please give a number only; it is taken to be in h.

Exercise: If you can, please state the reported half-life value of COc1ccc([C@@H]2CC(=O)c3c(O)cc(O)cc3O2)cc1O .
Key: 6.56

Exercise: If you can, please state the reported half-life value of O=C1C[C@@H](c2ccc(O)cc2)Oc2cc(O)cc(O)c21 .
Key: 5.67

Exercise: If you can, please state the reported half-life value of COc1ccc2ccc(=O)oc2c1C[C@@H](O)C(C)(C)O [Meranzin hydrate, meranzin hydrate] .
Key: 2.23

* * *

Assay: Stability of the analytical solution of FA decoction at environmental temperature
Format: physicochemical
Settings: FA decoction 1.7 g/mL, 0h
Listing of recorded Stability in FA decoction, Content by entry.
Please give a number only; it is taken to be in mg/mL.

Use the examples below as a reference point.
• C[C@@H]1O[C@@H](O[C@H]2[C@H](Oc3cc(O)c4c(c3)O[C@H](c3ccc(O)cc3)CC4=O)O[C@H](CO)[C@@H](O)[C@@H]2O)[C@H](O)[C@H](O)[C@H]1O [naringin] = 25.24
• O=C1C[C@@H](c2ccc(O)cc2)Oc2cc(O)cc(O)c21 [Naringenin, naringenin] = 0.27

Exercise: If you can, please state the reported Stability in FA decoction, Content value of COc1ccc([C@@H]2CC(=O)c3c(O)cc(O[C@@H]4O[C@H](CO)[C@@H](O)[C@H](O)[C@H]4O[C@@H]4O[C@@H](C)[C@H](O)[C@@H](O)[C@H]4O)cc3O2)cc1O [neohesperidin] .
Key: 14.33

* * *

Listing of recorded Stability in FA decoction, Content by entry.
Assay: Stability of the analytical solution of FA decoction at environmental temperature
Type: physicochemical
Conditions: FA decoction 1.7 g/mL, 12h
Please give a number only; it is taken to be in mg/mL.

Use the examples below as a reference point.
- COc1ccc([C@@H]2CC(=O)c3c(O)cc(O[C@@H]4O[C@H](CO[C@@H]5O[C@@H](C)[C@H](O)[C@@H](O)[C@H]5O)[C@@H](O)[C@H](O)[C@H]4O)cc3O2)cc1O: 4.87
- O=C1C[C@@H](c2ccc(O)cc2)Oc2cc(O)cc(O)c21: 0.26
- C[C@@H]1O[C@@H](O[C@H]2[C@H](Oc3cc(O)c4c(c3)O[C@H](c3ccc(O)cc3)CC4=O)O[C@H](CO)[C@@H](O)[C@@H]2O)[C@H](O)[C@H](O)[C@H]1O: 24.98
- COc1ccc([C@@H]2CC(=O)c3c(O)cc(O[C@@H]4O[C@H](CO)[C@@H](O)[C@H](O)[C@H]4O[C@@H]4O[C@@H](C)[C@H](O)[C@@H](O)[C@H]4O)cc3O2)cc1O: 14.11
- COc1ccc2ccc(=O)oc2c1C[C@@H](O)C(C)(C)O [Meranzin hydrate, meranzin hydrate]: 0.35

Exercise: If you can, please state the reported Stability in FA decoction, Content value of COc1ccc([C@@H]2CC(=O)c3c(O)cc(O)cc3O2)cc1O .
Key: 0.19

* * *

Test: Pharmacokinetic study in rats after oral administration of FA decoction
Format: in vivo, Sprague-Dawley rats
Details: male, Sprague-Dawley; rat plasma, oral FA decoction 15 g/kg; n=8; read-out: MRT(0–t)
Outcome Measure: MRT last (h)
Please give a number only; it is taken to be in h.

Use the examples below as a reference point.
• COc1ccc2ccc(=O)oc2c1C[C@@H](O)C(C)(C)O [Meranzin hydrate, meranzin hydrate] = 2.77
• O=C1C[C@@H](c2ccc(O)cc2)Oc2cc(O)cc(O)c21 = 4.06

Next item in the queue.
Exercise: If you can, please state the reported MRT last value of COc1ccc([C@@H]2CC(=O)c3c(O)cc(O)cc3O2)cc1O .
Key: 4.27
